target_under_test: SARS-CoV-2 main protease (Mpro) (Severe acute respiratory syndrome coronavirus 2, UniProt P0DTD1)
Construct: gene rep
measurement_notes: fluorescence protease assay, fluorogenic peptide, dose response
Assay type: biochemical
measured_parameter: IC50 (µM)
// return numeric value only (unit: µM, not printed)

Query: Fill blank: measured IC50 of the molecule COc1ccc2c(C(=O)NNc3nc4ccccc4[nH]3)cc(=O)[nH]c2c1 [ALP-UNI-ed5cdfd2-1] is ____.
Response: 19.4

----------
target_under_test: SARS-CoV-2 main protease (Mpro) (Severe acute respiratory syndrome coronavirus 2, UniProt P0DTD1)
Construct: gene rep
measurement_notes: fluorescence protease assay, fluorogenic peptide, dose response
Type: biochemical
condition: pH 7.3, 20 mM HEPES, 1.0 mM TCEP, 50 mM NaCl, 5 nM Mpro, 37 nM substrate, 15 min pre-incubation, room temperature; read-out: IC50
measured_parameter: pIC50
Keep in mind that pIC50 stands for -log10 of concentration in molar terms.

Query: Fill blank: measured pIC50 of the compound O=C(NNc1nc2ccccc2[nH]1)c1cc(=O)[nH]c2ccccc12 [WIL-UNI-d4749f31-37] is ____.
Response: 4.59

This collection of values is drawn from paper doi:10.1101/2022.11.21.517375v1.
